biological target: SARM1 (Homo sapiens); construct: the inventor produces full-length SARM1 for NADase activity assays and for screening; His (C); digitonin lysate supernatant, not purified further); assay: In vitro biochemical assay for inhibiting SARM1 enzymatic activity (PC6 fluorescence, NAD substrate, NMN activator); conditions: 0.05 µg/mL SARM1, 50 µM NAD, 50 µM PC6, 50 µM NMN, 10 min pre-incubation, 30 min at room temperature
pIC50: −log10 of the molar value.
I'd appreciate it if you could supply pIC50 values for the items below.

Param item: O=C1C(Cc2cc(F)cc(F)c2)CCN1c1ccc(-c2ccncc2)nn1 (stereo not drawn) ; param system: SARM1 (Homo sapiens); output pIC50: > 6.00

Param item: O=C(O)c1ccc(CC2CCN(c3ccc(-c4ccncc4)cc3)C2=O)cc1 (stereo not drawn) ; param system: SARM1 (Homo sapiens); output pIC50: 4.52 to 5.00

Param item: O=C1C(Cc2ccc(Cl)cc2)CON1c1ccc(-c2ccncc2)cc1 (stereo not drawn) ; param system: SARM1 (Homo sapiens); output pIC50: > 6.00

Param item: O=C1C(Cc2ccc(Cl)cc2)CCN1c1ccc(-c2ccncc2F)nn1 (stereo not drawn) ; param system: SARM1 (Homo sapiens); output pIC50: > 6.00

Param item: O=C1C(Cc2ccc(Cl)cc2)CCCN1c1ccc(-c2ccncc2)cc1 (stereo not drawn) ; param system: SARM1 (Homo sapiens); output pIC50: 5.00 to 6.00

Param item: O=C1C(Cc2ccc(Cl)cc2)CCN1c1ccc(-c2ccncc2)cn1 (stereo not drawn) ; param system: SARM1 (Homo sapiens); output pIC50: 5.00 to 6.00

Param item: O=C1C(Cc2ccc(Cl)cc2)CCN1c1cnc(-c2ccncc2)cn1 (stereo not drawn) ; param system: SARM1 (Homo sapiens); output pIC50: > 6.00

Param item: O=C1C(Cc2ccc(F)cc2)CCN1c1ccc(-c2ccncc2)cc1 (stereo not drawn) ; param system: SARM1 (Homo sapiens); output pIC50: 5.00 to 6.00

Param item: S=C1C(Cc2ccc(Cl)cc2)CCN1c1ccc(-c2ccncc2)cc1 (stereo not drawn) ; param system: SARM1 (Homo sapiens); output pIC50: > 6.00

---

Biological target: SARM1 (Homo sapiens)
Construct: the inventor produces full-length SARM1 for NADase activity assays and for screening; His (C); digitonin lysate supernatant, not purified further)
Sequence (Q6SZW1 28-724): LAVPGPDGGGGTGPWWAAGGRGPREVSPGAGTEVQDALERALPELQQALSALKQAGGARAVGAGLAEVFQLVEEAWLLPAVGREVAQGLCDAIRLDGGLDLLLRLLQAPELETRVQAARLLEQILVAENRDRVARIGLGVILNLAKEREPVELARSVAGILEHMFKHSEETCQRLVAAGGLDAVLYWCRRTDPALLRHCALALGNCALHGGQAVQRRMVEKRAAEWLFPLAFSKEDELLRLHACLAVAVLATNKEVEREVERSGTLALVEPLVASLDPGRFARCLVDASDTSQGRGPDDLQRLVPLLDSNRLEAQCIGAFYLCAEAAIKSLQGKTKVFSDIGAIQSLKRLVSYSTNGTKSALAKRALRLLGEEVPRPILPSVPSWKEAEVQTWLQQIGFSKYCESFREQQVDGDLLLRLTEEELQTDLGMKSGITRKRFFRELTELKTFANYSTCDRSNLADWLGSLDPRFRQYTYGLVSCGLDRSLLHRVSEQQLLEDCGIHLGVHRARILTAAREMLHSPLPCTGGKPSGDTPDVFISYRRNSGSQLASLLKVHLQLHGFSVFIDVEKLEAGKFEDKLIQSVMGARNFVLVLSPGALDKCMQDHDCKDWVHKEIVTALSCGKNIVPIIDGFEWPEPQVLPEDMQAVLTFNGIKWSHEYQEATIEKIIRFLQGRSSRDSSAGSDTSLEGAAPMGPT
Assay: In vitro biochemical assay for inhibiting SARM1 enzymatic activity (PC6 fluorescence, NAD substrate, NMN activator)
Conditions: 0.05 µg/mL SARM1, 50 µM NAD, 50 µM PC6, 50 µM NMN, 10 min pre-incubation, 30 min at room temperature
Reported Property: IC50

Record summary for O=C1C(Cc2ccc(Cl)cc2)CCON1c1ccc(-c2ccncc2)cc1 (stereo not drawn) : reported IC50 = 1 to 10 µM

Record summary for O=C1C(Cc2ccc([N+](=O)[O-])cc2)CCN1c1ccc(-c2ccncc2)cc1 (stereo not drawn) : reported IC50 = 10 to 30 µM

Record summary for O=C1C(Cc2ccc(Cl)cc2)CCN1c1cnc(-c2ccncc2)nc1 (stereo not drawn) : reported IC50 = 10 to 30 µM

Record summary for O=C1C(Cc2cccc(Cl)c2)CCN1c1ccc(-c2ccncc2)cc1 (stereo not drawn) : reported IC50 = 10 to 30 µM

Record summary for O=C1C(Cc2ccc(Cl)c(F)c2)CCN1c1ccc(-c2ccncc2)cc1 (stereo not drawn) : reported IC50 = 1 to 10 µM

Record summary for O=C1C(Cc2ccc(/C=C/Cl)cc2)CCN1c1ccc(-c2ccncc2)cc1 (stereo not drawn) : reported IC50 = 1 to 10 µM
